Biological target: Polyunsaturated fatty acid 5-lipoxygenase (Rattus norvegicus)
Sequence (P12527 whole entry): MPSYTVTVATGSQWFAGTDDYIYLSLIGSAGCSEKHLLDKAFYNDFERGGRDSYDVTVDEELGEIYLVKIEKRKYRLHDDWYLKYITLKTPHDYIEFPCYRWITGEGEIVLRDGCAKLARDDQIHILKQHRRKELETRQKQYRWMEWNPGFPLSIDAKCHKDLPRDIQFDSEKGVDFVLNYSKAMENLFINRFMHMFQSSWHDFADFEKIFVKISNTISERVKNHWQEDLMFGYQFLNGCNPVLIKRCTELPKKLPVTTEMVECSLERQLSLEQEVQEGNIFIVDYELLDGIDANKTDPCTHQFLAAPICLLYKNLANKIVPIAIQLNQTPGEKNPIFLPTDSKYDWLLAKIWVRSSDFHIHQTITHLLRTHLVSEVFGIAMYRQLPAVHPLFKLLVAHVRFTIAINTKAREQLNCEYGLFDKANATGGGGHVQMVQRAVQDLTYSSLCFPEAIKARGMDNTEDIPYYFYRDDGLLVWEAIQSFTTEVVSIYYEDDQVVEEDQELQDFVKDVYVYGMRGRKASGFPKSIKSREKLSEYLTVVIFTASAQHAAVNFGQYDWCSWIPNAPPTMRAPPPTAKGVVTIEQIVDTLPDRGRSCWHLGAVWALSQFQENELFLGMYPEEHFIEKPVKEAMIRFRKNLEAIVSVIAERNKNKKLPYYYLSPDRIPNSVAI
Test: Inhibition of 5-lipoxygenase from rat basophilic leukemia(RBL-1) cells
Note to self: use t only for IC50 readings below 200 nM; a reading exactly at 200 nM still gets f.

# count of solved cases: 3
- SMILES_REPRESENTATION: "CCCc1c(OCCc2cccc(O)c2O)ccc(C(=O)O)c1O"
  CLASS_ASSIGNMENT: "f"
- SMILES_REPRESENTATION: "O=C(O)c1ccc(OCCCCCCc2cccc(O)c2O)cc1O"
  CLASS_ASSIGNMENT: "f"
- SMILES_REPRESENTATION: "CCCc1c(OCCCCCCCCc2cccc(O)c2O)ccc(C(=O)O)c1O"
  CLASS_ASSIGNMENT: "t"

Then there is this compound:
Just wondering, is IC50 of CCCc1c(OCCCc2cccc(O)c2O)ccc(C(=O)O)c1O below 200 nM? t
